Each recorded value in this set is attributed to PubChem BioAssay (NCATS).

- protocol_details: Cellular viability qHTS for adrenocortical cancer (ACC) cell line SW-13 (AID 1963989); further: potency means the concentration at half of the fitted maximal effect; nearly all actives have a fitted effect of over 65% in size
- condition_details: SW-13 ACC cells viability, CellTiter-Glo, 48 h
Inconclusive results are not listed. Calls of active or inactive are those of the source. The call rests on the fitted dose curve; in most records, active means well fitted cell-killing curve with a large enough effect; inconclusive means small, poorly fitted or top-dose-only effect; inactive means flat fitted curve, though single readings scatter.
recorded_metric: Potency

Example cases with answers are listed next.
>>> df
                                smiles_text      assay_result
0  COCCOc1nc(-c2ccc(Cl)c(Cl)c2)n(-c2ccc(NC(=O)CCl)cc2)n1  4470 nM (active)
1  CNCCCOc1cc(F)c(-c2c(Cl)nc3ncnn3c2N[C@@H](C)C(F)(F)F)c(F)c1  50.1 nM (active)

From here, focus on the item given below.
Record summary for CC(C)c1nn(-c2c(Cl)cccc2Cl)c2nc(Cc3ccc(OCCO)cc3)[nH]c(=O)c12 : reported Potency = 50.1 nM (active)

###

// Potency lookup, one value per entry
- protocol_details: Quantitative highthroughput screen to assess conditional lethalithy of SEM cells grown in Human Plasma-Like Medium with dialyzed fetal bovine serum (HPLM+ds) (AID 1963882); further: potency means the concentration at half of the fitted maximal effect; nearly all actives have a fitted effect of over 35% in size
- condition_details: SEM B-ALL cells in HPLM+ds, CellTiter-Glo viability, 48 h; series mostly up to 45.8 µM
Records with an inconclusive call do not appear. The source made the active and inactive calls. The call rests on the fitted dose curve; in most records, active means well fitted cell-killing curve with a large enough effect; inconclusive means small, poorly fitted or top-dose-only effect, or effect the other way; inactive means no such curve, though single readings can be large or run the other way.

Answered examples (2):
In [3]: df
Out[3]:
                                smiles_text      assay_result
0  N#Cc1c(N(CC(=O)O)CC(=O)O)sc(C(=O)O)c1CC(=O)O  13.2 µM (active)
1  O=C(c1ccc(Nc2nccc(-c3cc4ccccc4s3)n2)cc1)N1CCC(N2CCCC2)CC1  7.43 µM (active)

Next, consider the following compound.
Query Oc1ccc(-c2nc(-c3ccc(F)cc3)c(-c3ccncc3)[nH]2)cc1 yields Potency of 0.662 µM (active)

###

- protocol_details: Viability qHTS for spleen associated tyrosine kinase inhibitor (SYKi) drug resistant MV4-11 cells (AID 1963824); further: nearly all actives have a fitted effect of over 35% in size; further: potency means the concentration at half of the fitted maximal effect
- condition_details: SYKi-resistant MV4-11 viability, CellTiter-Glo, 72 h; series mostly up to 45 µM
Records with an inconclusive call do not appear. Active and inactive are the calls of the source. The call rests on the fitted dose curve; in most records, active means well fitted cell-killing curve with a large enough effect; inconclusive means small, poorly fitted or top-dose-only effect, or effect the other way; inactive means no such curve, though single readings can be large or run the other way.
recorded_metric: Potency

Use the examples below as a reference point.
>>> df
                                smiles_text  recorded_metric       assay_result
0  CCN(CC)CCOc1ccc(Nc2ncc3cc(-c4c(Cl)cccc4Cl)c(=O)n(C)c3n2)cc1          Potency  0.118 µM (active)
1  CN(C)c1ccccc1CN1CCCN(Cc2ccccc2N(C)C)C1c1ccncc1          Potency   7.42 µM (active)
2  CCN1CCC[C@H]1CNC(=O)c1cc(S(N)(=O)=O)ccc1OC          Potency           inactive
3  CCOCCn1nc(CC)c2nc(N3CCC(C(=O)O)CC3)nc(Nc3cc(C)ccn3)c21          Potency           inactive
4  Nc1ncnc2c1ncn2[C@@H]1O[C@H](CO)[C@@H](O)[C@H]1O          Potency           inactive

// field: Potency; key: NC(=O)OCC(COC(N)=O)c1ccccc1 ; value = inactive

response.value for C[C@@H]1CN(CCCn2c3ccccc3c3ccccc32)C[C@H](C)N1 (field: Potency) = 26.6 µM (active)

The molecule listed as CCN(C)S(=O)(=O)Nc1ccc(F)c(C(=O)c2c[nH]c3ncc(-c4cnc(C5CC5)nc4)cc23)c1F has a reported Potency of 4.68 µM (active)

For record Cc1cc(CS(=O)(=O)c2ccccc2)cc(OCc2ccc(CN3CCC[C@@H]3CO)cc2)c1 the listed Potency is 16.6 µM (active)

get_value(item= CC(=O)c1ccc(O[C@@H]2O[C@H](CO[C@@H]3OC[C@@H](O)[C@H](O)[C@H]3O)[C@@H](O)[C@H](O)[C@H]2O)cc1 , readout=Potency) returns inactive

So for COc1cc([C@@H]2c3cc4c(cc3[C@@H](O[C@@H]3O[C@@H]5CO[C@@H](C)O[C@@H]5[C@H](O)[C@@H]3O)[C@H]3COC(=O)[C@H]23)OCO4)cc(OC)c1O , the logged Potency turned out to be 0.525 µM (active)

###

- protocol_details: Cellular viability qHTS for adrenocortical cancer (ACC) cell line NCI-H295R (AID 1963990); further: nearly all actives have a fitted effect of over 60% in size
- condition_details: CellTiter-Glo ATP luminescence, 48 h; series mostly up to 46.1 µM
Records with an inconclusive call do not appear. Activity calls are given as the source filed them. Calls come from the whole dose curve; as a rule, active = well fitted cell-killing curve with a large enough effect; inconclusive = small, poorly fitted or top-dose-only effect; inactive = flat fitted curve, though single readings scatter.
Response enum: active, inactive

Worked examples follow.
                                   molecule  class_name
0  CC(=O)SCC(CC(=O)c1ccc(C)cc1)C(=O)O (stereo not drawn)    inactive
1       CC(C)(C)NC[C@H](O)COc1nsnc1N1CCOCC1    inactive
2  COc1ccc2cc(-c3nc(-c4ccc(S(C)=O)cc4)[nH]c3-c3ccncc3)ccc2c1 (stereo not drawn)      active
3  COC(=O)Nc1nc2ccc(C(=O)c3ccc(F)cc3)cc2[nH]1      active

### Prompt Recorded test outcome, item CC[C@@]1(c2ccccc2)NC(=O)N(C)C1=O
### Response inactive

### Prompt Check the results log: what was the call for CC1=C(C(=O)O)N2C(=O)[C@@H](NC(=O)[C@H](N)C3=CCC=CC3)[C@H]2SC1 ?
### Response inactive

### Prompt Record lookup: outcome of this test for CC(C[N+](C)(C)C)OC(N)=O (stereo not drawn) ?
### Response inactive

### Prompt Could you check what this test reported for C=CC(=O)N1CC(N2CCN(C(=O)CNc3cc(C4(C)CC4)c(Cl)cc3O)CC2)C1 ?
### Response active

### Prompt Hello, I am checking results. What call was entered for CNC(=O)CCc1cc(-c2ccc(-c3ccc(C(F)(F)F)cc3)cc2)n(-c2ccc(N3CCNCC3)cc2)n1 ?
### Response active

###

- protocol_details: Quantitative highthroughput screen to assess conditional lethalithy of SEM cells grown in RPMI1640 with unreated serum (RPMI+s) (AID 1963883); further: nearly all actives have a fitted effect of over 35% in size;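 on viability: 100% = DMSO wells and 0% = empty wells without cells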
- condition_details: SEM B-ALL cells, CellTiter-Glo viability, 48 h; series mostly up to 45.8 µM
Inconclusive results are not listed. Activity calls are given as the source filed them. Calls come from the whole dose curve; as a rule, active = well fitted cell-killing curve with a large enough effect; inconclusive = small, poorly fitted or top-dose-only effect, or effect the other way; inactive = no such curve, though single readings can be large or run the other way.
Entry note: the call must match one of 1.0 for active, 0.0 for inactive

These solved cases illustrate the format of a correct answer.
>>> print(df.to_string())
                                   molecule  class_name
0  O=C1NC(=O)C(c2cnc3ccccn23)=C1c1cn2c3c(cc(F)cc13)CN(C(=O)N1CCCCC1)CC2         1.0
1  c1nc2nc(Nc3ccc(N4CCOCC4)cc3)nc(NC3CCCCC3)c2[nH]1         1.0
2  CC(C)[C@H](O)C(=O)N[C@@H](C)C(=O)N[C@@H]1C(=O)N(C)CCc2ccccc21         0.0
3  COC1=C(OC)C(=O)C(CC=C(C)CCC=C(C)CCC=C(C)CCC=C(C)CCC=C(C)CCC=C(C)CCC=C(C)CCC=C(C)CCC=C(C)CCC=C(C)C)=C(C)C1=O         0.0

### Prompt Hi team, can someone confirm the assay call for COc1ccc(-c2oc3c(CC=C(C)C)c(O)cc(O)c3c(=O)c2O)cc1 ?
### Response 0.0

### Prompt Which outcome did this test record for the molecule O=C(O)C1(Cc2cccc(Nc3nccs3)n2)CCC(Oc2cccc(Cl)c2F)CC1 (stereo unspecified) ?
### Response 1.0

###

- protocol_details: Quantitative highthroughput screen to assess conditional lethalithy of NOMO1 cells grown in RPMI1640 with untreated serum (RPMI+s) (AID 1963876);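 further: 100% = DMSO wells and 0% = empty wells without cells; nearly all actives have a fitted effect of over 35% in size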
- condition_details: NOMO1 AML cells in RPMI+serum, CellTiter-Glo viability, 48 h; series mostly up to 45.8 µM
Records with an inconclusive call do not appear. Active and inactive are the calls of the source. Calls come from the whole dose curve; as a rule, active = well fitted cell-killing curve with a large enough effect; inconclusive = small, poorly fitted or top-dose-only effect; inactive = flat fitted curve, though single readings scatter.
Pick from Y (active), N (inactive) when you respond.

>>> df
                                   molecule  class_name
0  CCOc1cc(N)c(Cl)cc1C(=O)NCC1CN(Cc2ccc(F)cc2)CCO1 (stereo not drawn)           N
1  CC(C)c1ccccc1Cc1cc(C(=O)Nc2ccc(S(=O)(=O)c3ccccc3C(C)(C)C)cc2)c(O)c(O)c1O           N

### Prompt Would you mind telling me which call this test gave CCn1cc(C(=O)O)c(=O)c2cc(F)c(N3CCNC(C)C3)c(F)c21 (stereo not drawn) ?
### Response N

### Prompt Each molecule tested received a call. Report the one for C[C@]12C=CC(=O)N[C@@H]1CC[C@H]1[C@H]3CC[C@@H](C(=O)Nc4cc(C(F)(F)F)ccc4C(F)(F)F)[C@@]3(C)CC[C@@H]12 .
### Response N

###

- protocol_details: Quantitative highthroughput screen to assess conditional lethalithy of NOMO1 cells grown in RPMI1640 with dialyzed fetal bovine serum (RPMI+ds) (AID 1963877); further: nearly all actives have a fitted effect of over 30% in size;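 on viability: 100% = DMSO control wells and 0% = empty wells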
- condition_details: NOMO1 in RPMI+dialyzed FBS viability, ATP luminescence, 48 h; series mostly up to 45.8 µM
Records with an inconclusive call do not appear. Calls of active or inactive are those of the source. The call rests on the fitted dose curve; in most records, active means well fitted cell-killing curve with a large enough effect; inconclusive means small, poorly fitted or top-dose-only effect; inactive means flat fitted curve, though single readings scatter.
Write down one outcome, taken from active, inactive

compound	class_name
CCN(CC)CC#CCOC(=O)C(O)(c1ccccc1)C1CCCCC1 (configuration not stated)	inactive
O=C1C(Cl)=C(NCCN2CCOCC2)C(=O)c2ncccc21	active
CCn1c(-c2nonc2N)nc2cncc(CNC3CCNCC3)c21	active

### Prompt Hi, sorry to bother you, what did the test record for CC[C@@]1(O)C(=O)OCc2c1cc1n(c2=O)Cc2cc3c(CN(C)C)c(O)ccc3nc2-1 ?
### Response active

### Prompt What did this assay record as the result for Cc1cc(-c2ncc(CC(=O)Nc3ccc(-c4cnccn4)cn3)cc2C)ccn1 ?
### Response inactive

### Prompt In this assay, the call recorded for NC(=O)N1c2ccccc2CC(=O)c2ccccc21 was what?
### Response inactive

### Prompt Field: outcome | Entry: O=C(NCCCCN1CCOCC1)c1cc2ccccc2o1
### Response inactive

### Prompt Per the assay record, what outcome was assigned to Cc1c(CCOc2ccc(C(=O)O)cc2)c2cc(Cl)ccc2n1C(c1ccccc1)c1ccccc1 ?
### Response inactive

### Prompt So what was the verdict on CO[C@H]1C[C@@H]2CC[C@@H](C)[C@@](O)(O2)C(=O)C(=O)N2CCCC[C@@H]2C(=O)O[C@H]([C@H](C)C[C@@H]2CC[C@H](OP(C)(C)=O)[C@H](OC)C2)CC(=O)[C@H](C)C=C(C)[C@@H](O)[C@@H](OC)C(=O)[C@H](C)C[C@H](C)C=CC=CC=C1C in this test?
### Response inactive

### Prompt Per the assay record, what outcome was assigned to CCCCCCOC(=O)N=C(N)c1ccc(NCc2nc3cc(C(=O)N(CCC(=O)OCC)c4ccccn4)ccc3n2C)cc1 ?
### Response active

### Prompt Test call for this compound, please: COc1ccc(-c2nc(N3CCOCC3)c3sc(CN(C)c4ncc(C(=O)NO)cn4)cc3n2)cn1
### Response active

### Prompt Check the results log: what was the call for CC1(C)O[C@@H]2C[C@H]3[C@@H]4CCC5=CC(=O)C=C[C@]5(C)[C@@H]4[C@@H](O)C[C@]3(C)[C@]2(C(=O)CO)O1 ?
### Response inactive
